These data points were gathered from PubChem BioAssay AID602169.

System: BG1Luc4E2 ER-luciferase reporter inhibition, 24 h
assay-name: suppression of estradiol-induced ERE reporter expression – BG1Luc4E2 ovarian carcinoma cells, luminescence, counter-screen for AHR activator project, late-stage follow-up (AID 602169)
conditions: at 10 µM; hits give high values
readout-kind: inhibition (%)
Answers are plain numbers, in %.

- smiles-string: "O=C(Nc1ccon1)c1cnc2sccn2c1=O"
  measurement-target: "BG1Luc4E2 ER-luciferase reporter inhibition, 24 h"
  observed-value: 34

Quick one: give me inhibition for each item below, same order please.
1. O=C(Nc1cccc(Cl)c1)c1cccnn1
2. COc1ccc(Cl)cc1C(=O)Nc1ccc(N(C)C(C)=O)cc1
3. Cc1c(-c2ccn[nH]2)cc(NC(=O)c2ccc(Cl)cc2)c(=O)n1N
4. CCCC(=O)Nc1nn(C)c2nc3cc(C)ccc3cc12
5. CCOc1ccc(-c2cc(C)n3nc(C(N)=O)cc3n2)cc1
6. CCOc1ccc(NC(=O)c2cc3ccccc3cc2OC)cc1
7. COc1ccccc1NC(=O)c1ccc(C(=O)Nc2ccccc2OC)nc1
8. Cn1c(N)c(C(=O)Nc2ccccc2F)sc1=S

Reply |
1. 2
2. 2
3. 1
4. 0
5. 0
6. 5.3
7. 0
8. 5

---

Test system: BG1Luc4E2 ER-luciferase reporter inhibition, 24 h
assay-name: suppression of estradiol-induced ERE reporter expression – BG1Luc4E2 ovarian carcinoma cells, luminescence, counter-screen for AHR activator project, late-stage follow-up (AID 602169)
conditions: at 10 µM
Calls of active or inactive are those of the source.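 Rule for the calls: active = luciferase reporter signal inhibited by 20% or more; inactive = inhibition below 20%.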
Form entry, call: pick from t for active, f for inactive

Illustrative cases are given below, each with its answer.
- smiles-string: "COc1ccccc1NC(=O)c1ccc2c(c1)nnn2C"
  measurement-target: "BG1Luc4E2 ER-luciferase reporter inhibition, 24 h"
  classification: "f"
- smiles-string: "O=C1c2ccccc2-c2nc3ccccc3nc21"
  measurement-target: "BG1Luc4E2 ER-luciferase reporter inhibition, 24 h"
  classification: "t"
- smiles-string: "CN(C)c1nc(N)nc(-c2nc3ccccc3s2)n1"
  measurement-target: "BG1Luc4E2 ER-luciferase reporter inhibition, 24 h"
  classification: "t"
- smiles-string: "Cc1ccc(Nc2ncccc2C(N)=O)cc1"
  measurement-target: "BG1Luc4E2 ER-luciferase reporter inhibition, 24 h"
  classification: "t"
- smiles-string: "COc1cc2ccccc2cc1C(=O)Nc1ccc(C)cc1"
  measurement-target: "BG1Luc4E2 ER-luciferase reporter inhibition, 24 h"
  classification: "t"

Ask | // param item: COc1ccccc1NC(=O)Nc1cccnc1 ; yields the recorded call
Reply | f

Ask | Which result was noted for this molecule in the test: Cc1ccccc1-c1nc(-c2cccnc2)no1
Reply | t

Ask | Please state the recorded outcome for this molecule: COc1ccc(C(=O)Nc2cc(OC)c(NC(=O)c3ccco3)cc2OC)cc1
Reply | f

---

Assignment: determine reported inhibition for the given molecules.
Test system: BG1Luc4E2 ER-luciferase reporter inhibition, 24 h
assay-name: suppression of estradiol-induced ERE reporter expression – BG1Luc4E2 ovarian carcinoma cells, luminescence, counter-screen for AHR activator project, late-stage follow-up (AID 602169)
conditions: at 10 µM; hits give high values
One number for each entry, in %.

- smiles-string: "CCC(=O)Nc1cc(OC)c(NC(=O)c2ccccc2)cc1OC"
  u: "%"
  inhibition: 1
- smiles-string: "COc1cc2c(cc1NC(=O)Nc1ccc(C)cc1)oc1ccccc12"
  u: "%"
  inhibition: 5
- smiles-string: "CCOc1ccccc1NC(=O)c1ccc2nccnc2c1"
  u: "%"
  inhibition: 8
- smiles-string: "O=C(CN1CCOCC1)Nc1nc2ccc([N+](=O)[O-])cc2s1"
  u: "%"
  inhibition: 11
- smiles-string: "Cc1csc(SCC(=O)Nc2ccc(Cl)cn2)n1"
  u: "%"
  inhibition: 0
- smiles-string: "Cc1nnc(N2C(=O)c3cccc4c([N+](=O)[O-])ccc(c34)C2=O)s1"
  u: "%"
  inhibition: 0

Would you mind giving inhibition for every molecule in the list below?
1. Cc1cc(Nc2ccc(Br)cc2)n2nc(C)nc2n1
2. Cn1c(C(=O)N2CCC(C(N)=O)CC2)cc2cc(Cl)ccc21

Reply |
1: 0; 2: 4
